Assign IC50 to each entry below.
- subject.of.test: N-type calcium channel (α1B (Cav2.2), β3 and α2δ subunits) (Homo sapiens, UniProt Q00975)
- Sequence (Q00975 whole entry): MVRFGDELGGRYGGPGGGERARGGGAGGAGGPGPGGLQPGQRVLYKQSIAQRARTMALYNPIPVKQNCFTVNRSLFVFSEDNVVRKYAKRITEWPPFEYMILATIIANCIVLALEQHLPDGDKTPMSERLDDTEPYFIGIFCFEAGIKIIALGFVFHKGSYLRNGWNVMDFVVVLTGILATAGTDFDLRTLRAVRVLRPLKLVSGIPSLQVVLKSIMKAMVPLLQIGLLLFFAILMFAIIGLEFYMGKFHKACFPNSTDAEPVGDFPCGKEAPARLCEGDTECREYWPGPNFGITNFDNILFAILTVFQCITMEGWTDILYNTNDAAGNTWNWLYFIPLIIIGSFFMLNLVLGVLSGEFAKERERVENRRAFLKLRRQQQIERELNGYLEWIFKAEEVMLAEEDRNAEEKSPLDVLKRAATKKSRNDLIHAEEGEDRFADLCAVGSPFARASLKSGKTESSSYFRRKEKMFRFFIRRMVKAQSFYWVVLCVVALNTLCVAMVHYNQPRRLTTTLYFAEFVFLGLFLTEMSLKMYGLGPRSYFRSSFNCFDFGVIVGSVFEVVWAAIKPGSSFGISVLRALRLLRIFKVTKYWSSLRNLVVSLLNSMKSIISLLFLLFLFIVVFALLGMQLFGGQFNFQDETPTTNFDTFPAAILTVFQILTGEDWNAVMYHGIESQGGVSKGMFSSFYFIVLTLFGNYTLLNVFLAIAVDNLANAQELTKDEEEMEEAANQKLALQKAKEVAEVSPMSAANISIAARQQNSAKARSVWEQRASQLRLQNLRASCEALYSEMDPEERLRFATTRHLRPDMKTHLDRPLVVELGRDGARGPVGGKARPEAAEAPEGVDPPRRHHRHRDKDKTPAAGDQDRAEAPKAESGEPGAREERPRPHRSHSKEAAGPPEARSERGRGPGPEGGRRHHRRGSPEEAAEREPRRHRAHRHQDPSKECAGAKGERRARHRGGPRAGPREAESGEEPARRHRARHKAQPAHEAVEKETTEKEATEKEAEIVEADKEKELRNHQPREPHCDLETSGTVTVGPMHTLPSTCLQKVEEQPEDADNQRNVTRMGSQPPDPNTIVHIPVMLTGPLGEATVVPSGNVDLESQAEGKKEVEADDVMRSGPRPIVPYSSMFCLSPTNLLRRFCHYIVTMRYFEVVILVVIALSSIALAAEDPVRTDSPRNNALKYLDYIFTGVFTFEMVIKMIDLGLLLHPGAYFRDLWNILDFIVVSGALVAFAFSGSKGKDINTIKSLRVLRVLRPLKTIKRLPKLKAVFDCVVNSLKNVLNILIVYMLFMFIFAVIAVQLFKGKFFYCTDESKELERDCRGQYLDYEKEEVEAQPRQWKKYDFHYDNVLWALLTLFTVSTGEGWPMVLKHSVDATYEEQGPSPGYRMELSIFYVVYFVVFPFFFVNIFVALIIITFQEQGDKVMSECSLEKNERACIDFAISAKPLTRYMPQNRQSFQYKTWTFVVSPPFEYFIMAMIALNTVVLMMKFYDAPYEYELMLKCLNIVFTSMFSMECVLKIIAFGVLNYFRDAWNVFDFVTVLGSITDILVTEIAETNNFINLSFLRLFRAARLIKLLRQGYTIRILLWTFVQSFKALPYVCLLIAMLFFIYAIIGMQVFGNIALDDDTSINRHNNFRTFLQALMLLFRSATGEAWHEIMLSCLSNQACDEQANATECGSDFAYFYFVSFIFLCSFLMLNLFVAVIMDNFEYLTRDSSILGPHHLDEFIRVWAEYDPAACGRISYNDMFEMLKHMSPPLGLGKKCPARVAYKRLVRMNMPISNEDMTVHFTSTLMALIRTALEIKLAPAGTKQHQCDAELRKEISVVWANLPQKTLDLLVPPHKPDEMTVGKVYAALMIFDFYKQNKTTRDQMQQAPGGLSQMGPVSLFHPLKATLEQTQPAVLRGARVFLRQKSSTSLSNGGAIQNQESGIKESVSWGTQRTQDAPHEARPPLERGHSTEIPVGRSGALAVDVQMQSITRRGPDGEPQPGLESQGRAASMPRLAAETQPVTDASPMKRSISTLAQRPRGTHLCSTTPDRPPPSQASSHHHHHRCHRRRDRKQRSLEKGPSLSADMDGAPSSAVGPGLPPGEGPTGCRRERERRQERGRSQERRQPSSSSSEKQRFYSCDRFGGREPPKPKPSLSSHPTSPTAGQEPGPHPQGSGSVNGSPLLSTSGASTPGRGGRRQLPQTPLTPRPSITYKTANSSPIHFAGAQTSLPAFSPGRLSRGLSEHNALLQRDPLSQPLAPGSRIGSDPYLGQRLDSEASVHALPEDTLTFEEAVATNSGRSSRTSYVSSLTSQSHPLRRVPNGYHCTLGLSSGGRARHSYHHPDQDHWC
- Sequence (P54284 whole entry partner): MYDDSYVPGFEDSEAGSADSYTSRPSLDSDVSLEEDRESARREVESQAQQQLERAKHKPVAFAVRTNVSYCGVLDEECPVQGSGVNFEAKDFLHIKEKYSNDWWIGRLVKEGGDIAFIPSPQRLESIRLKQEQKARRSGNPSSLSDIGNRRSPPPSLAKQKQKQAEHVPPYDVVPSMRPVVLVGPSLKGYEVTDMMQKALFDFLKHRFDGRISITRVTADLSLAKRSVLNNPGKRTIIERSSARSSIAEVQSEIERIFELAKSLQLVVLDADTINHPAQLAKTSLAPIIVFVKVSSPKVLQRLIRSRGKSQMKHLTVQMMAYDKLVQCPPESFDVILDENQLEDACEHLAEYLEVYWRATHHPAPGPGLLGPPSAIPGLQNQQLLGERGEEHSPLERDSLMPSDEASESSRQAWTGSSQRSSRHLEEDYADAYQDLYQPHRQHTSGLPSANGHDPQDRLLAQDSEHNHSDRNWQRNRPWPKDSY
- Sequence (P54289 25-946 partner limits assumed): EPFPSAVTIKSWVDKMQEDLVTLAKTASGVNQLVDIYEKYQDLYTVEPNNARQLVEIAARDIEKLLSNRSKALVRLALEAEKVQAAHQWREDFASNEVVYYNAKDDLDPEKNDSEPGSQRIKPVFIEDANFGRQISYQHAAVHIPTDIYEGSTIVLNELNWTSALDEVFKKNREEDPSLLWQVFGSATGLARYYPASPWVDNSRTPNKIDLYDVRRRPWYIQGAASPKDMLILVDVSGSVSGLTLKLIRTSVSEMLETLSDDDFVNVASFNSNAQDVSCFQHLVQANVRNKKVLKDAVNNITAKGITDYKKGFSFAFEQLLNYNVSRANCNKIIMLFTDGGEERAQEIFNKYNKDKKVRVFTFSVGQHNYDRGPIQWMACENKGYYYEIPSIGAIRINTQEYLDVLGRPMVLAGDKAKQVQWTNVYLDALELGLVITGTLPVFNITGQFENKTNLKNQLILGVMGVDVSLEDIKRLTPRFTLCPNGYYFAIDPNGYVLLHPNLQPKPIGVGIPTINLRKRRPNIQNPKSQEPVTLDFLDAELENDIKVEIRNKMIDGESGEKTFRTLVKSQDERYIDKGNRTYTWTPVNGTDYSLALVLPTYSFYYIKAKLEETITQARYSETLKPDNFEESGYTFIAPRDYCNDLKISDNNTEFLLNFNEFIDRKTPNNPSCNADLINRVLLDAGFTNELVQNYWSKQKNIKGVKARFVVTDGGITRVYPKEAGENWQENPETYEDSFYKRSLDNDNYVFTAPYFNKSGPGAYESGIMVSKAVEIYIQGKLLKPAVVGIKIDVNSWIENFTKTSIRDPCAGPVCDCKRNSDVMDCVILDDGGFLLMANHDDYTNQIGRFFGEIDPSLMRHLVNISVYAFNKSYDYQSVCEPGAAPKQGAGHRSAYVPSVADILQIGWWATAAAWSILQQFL
- Sequence (P54289 947-1103 partner limits assumed): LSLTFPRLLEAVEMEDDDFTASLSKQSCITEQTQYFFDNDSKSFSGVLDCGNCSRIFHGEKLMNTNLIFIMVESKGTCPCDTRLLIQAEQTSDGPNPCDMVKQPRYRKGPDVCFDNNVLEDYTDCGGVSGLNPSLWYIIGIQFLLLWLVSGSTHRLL
- assay.procedure: Functional Assay: Antagonism of N-Type Calcium Channel (FDSS calcium mobilization, KCl depolarization)
- Type: cell-based
- experimental.context: HEK cell line, 50 mM KCl depolarization, six-point concentration-response; read-out: FDSS IC50
One number for each entry, in nM.

[
  {
    "molecule": "COc1ccccc1-n1nc2c(c1-c1ccc(Cl)cc1)C[C@H](OCC(C)C)C2",
    "IC50 (nM)": 23
  }
]

Here are 5 molecules. What values of IC50 were reported for them?
1. COc1ccccc1-n1nc2c(c1-c1ccc(Cl)cc1)C[C@H](OC(=O)C1CCCC1)C2
2. COc1ccccc1-n1nc2c(c1-c1ccc(Cl)cc1)C[C@@H](OC)C2
3. COc1ccccc1-n1nc2c(c1-c1ccc(C#N)cc1)CC(CC(C)C)C2 (stereo not drawn)
4. CCc1ncn([C@@H]2Cc3nn(-c4ccccc4OC)c(-c4ccc(C#N)cc4)c3C2)c1CC
5. COc1ccccc1-n1nc2c(c1-c1ccc(Cl)cc1)CC(OC(=O)N(C)C)C2 (stereo not drawn)

Given back:
75
52
46
37
15

* * *

Assign inhibition at 0.33 µM to each entry below.
- subject.of.test: N-type calcium channel (α1B (Cav2.2), β3 and α2δ subunits) (Homo sapiens, UniProt Q00975)
- assay.procedure: Functional Assay: Antagonism of N-Type Calcium Channel (FDSS calcium mobilization, KCl depolarization)
- Type: cell-based
- experimental.context: 0.33 μM
Answers are plain numbers, in %.

[
  {
    "compound": "COc1ccccc1-n1nc2c(c1-c1ccc(Cl)cc1)CC(c1ccc(C)nc1)C2 (stereo not drawn) [Compound 73]",
    "inhibition at 0.33 µM (%)": 81
  },
  {
    "compound": "CCc1nnn([C@@H]2Cc3nn(-c4ccccc4OC)c(-c4ccc(C#N)cc4)c3C2)c1CC [Compound 136]",
    "inhibition at 0.33 µM (%)": 89
  },
  {
    "compound": "COc1ccccc1-n1nc2c(c1-c1ccc(Cl)cc1)CC1(C2)O[C@H]2CCC[C@@H]2O1 [Compound 113]",
    "inhibition at 0.33 µM (%)": 82
  },
  {
    "compound": "CCOc1ccccc1-n1nc2c(c1-c1ccc(Cl)cc1)CC(n1cc([Si](C)(C)C)nn1)C2 (stereo not drawn) [Compound 41]",
    "inhibition at 0.33 µM (%)": 92
  },
  {
    "compound": "COc1ccccc1-n1nc2c(c1-c1ccc(N(C)C)cc1)CC1(C2)OC(C)(C)C(C)(C)O1 [Compound 107]",
    "inhibition at 0.33 µM (%)": 92
  }
]

The record that follows has no inhibition at 0.33 µM shown yet.
Asked: May I ask what inhibition at 0.33 µM has been recorded for CCOc1ccccc1-n1nc2c(c1-c1ccc(Cl)cc1)C[C@@H](NS(=O)(=O)C(C)C)C2 [Compound 44] ?
Given back: 89

* * *

- subject.of.test: N-type calcium channel (Homo sapiens, UniProt Q00975)
- Sequence (Q00975 whole entry): as the sequence (Q00975 whole entry) above
- Sequence (P54284 whole entry partner): as the sequence (P54284 whole entry partner) above
- Sequence (P54289 25-946 partner limits assumed): as the sequence (P54289 25-946 partner limits assumed) above
- Sequence (P54289 947-1103 partner limits assumed): as the sequence (P54289 947-1103 partner limits assumed) above
- assay.procedure: Automated Electrophysiology Assay (QPatch-HT whole-cell patch clamp; low- and high-frequency stimulation)
- Assay type: cell-based
- experimental.context: low frequency; 1 μM; read-out: QPatch at Low Frequency % Inhibition
readout.type: inhibition at 1 µM (%)
Numbers only, in %.

Some solved entries appear below for comparison.
[
  {
    "molecule": "COc1ccccc1-n1nc2c(c1-c1ccc(Cl)cc1)CC(CCOC(=O)N1CCOCC1)C2 (stereo not drawn) [Compound 2]",
    "inhibition at 1 µM, %": 76
  },
  {
    "molecule": "COc1ccccc1-n1nc2c(c1-c1ccc(Cl)cc1)CC(CCOC(=O)N(C)C)C2 (stereo not drawn) [Compound 3]",
    "inhibition at 1 µM, %": 69
  },
  {
    "molecule": "COc1ccccc1-n1nc2c(c1-c1ccc(Cl)cc1)CC1(C2)O[C@@H](C)[C@@H](C)O1 (stereo partly drawn) [Compound 102]",
    "inhibition at 1 µM, %": 42
  },
  {
    "molecule": "CCc1ccccc1-n1nc2c(c1-c1ccc(Cl)cc1)CC(CNC(=O)OC(C)(C)C)C2 (stereo not drawn) [Compound 16]",
    "inhibition at 1 µM, %": 19
  },
  {
    "molecule": "COc1ccccc1-n1nc2c(c1-c1ccc(Cl)cc1)CC(c1cccnc1)C2 (stereo not drawn) [Compound 63]",
    "inhibition at 1 µM, %": 40
  }
]

Here are 4 molecules. What values of inhibition at 1 µM were reported for them?
1. CC(C)S(=O)(=O)N(C)[C@@H]1Cc2nn(-c3cccc4c3OCC4)c(-c3ccc(Cl)cc3)c2C1 [Compound 51]
2. CCC(CC)C(=O)O[C@H]1Cc2nn(-c3ccccc3OC)c(-c3ccc(Cl)cc3)c2C1 [Compound 55]
3. COc1ccccc1-n1nc2c(c1-c1ccc(Cl)cc1)CC(CCNC(=O)OC(C)(C)C)C2 (stereo not drawn) [Compound 13]
4. CCOc1ccccc1-n1nc2c(c1-c1ccc(Cl)cc1)CC(n1ccnc1)C2 (stereo not drawn) [Compound 39]

Given back:
[49, 57, 42, 51]

* * *

- subject.of.test: N-type calcium channel (α1B (Cav2.2), β3 and α2δ subunits) (Homo sapiens, UniProt Q00975)
- assay.procedure: Functional Assay: Antagonism of N-Type Calcium Channel (FDSS calcium mobilization, KCl depolarization)
- Assay type: cell-based
Assign inhibition at 0.33 µM to each entry below.
Numbers only, in %.

Some solved entries appear below for comparison.
[
  {
    "molecule": "COc1ccccc1-n1nc2c(c1-c1ccc(Cl)cc1)CC(C(C)C)C2 (stereo not shown) [Compound 92]",
    "value.reported": 43
  },
  {
    "molecule": "COc1ccccc1-n1nc2c(c1-c1ccc(Cl)cc1)C[C@H](OCC1CCCC1)C2 [Compound 83]",
    "value.reported": 92
  },
  {
    "molecule": "COc1ccccc1-n1nc2c(c1-c1ccc(Cl)cc1)C[C@H](OCC1CCC1)C2 [Compound 84]",
    "value.reported": 80
  }
]

The record that follows has no inhibition at 0.33 µM shown yet.
Asked: May I ask what inhibition at 0.33 µM has been recorded for COc1ccccc1-n1nc2c(c1-c1ccc(Cl)cc1)CC1(C2)O[C@H]2CCCC[C@H]2O1 (stereo partly shown) [Compound 112] ?
Given back: 90

* * *

- subject.of.test: N-type calcium channel (α1B (Cav2.2), β3 and α2δ subunits) (Homo sapiens, UniProt Q00975)
- assay.procedure: Functional Assay: Antagonism of N-Type Calcium Channel (FDSS calcium mobilization, KCl depolarization)
- Assay type: cell-based
- experimental.context: 0.33 μM
Assign inhibition at 0.33 µM to each entry below.
One number for each entry, in %.

[
  {
    "molecule": "CCc1ncn([C@@H]2Cc3nn(-c4ccccc4OC)c(-c4ccc(C#N)cc4)c3C2)c1CC",
    "scale.unit": "%",
    "inhibition at 0.33 µM": 87
  }
]

Here are 3 molecules. What values of inhibition at 0.33 µM were reported for them?
1. COc1ccccc1-n1nc2c(c1-c1ccc(Cl)cc1)CC1(C2)OCC(C)(C)CO1
2. COc1ccccc1-n1nc2c(c1-c1ccc(Cl)cc1)CC(CNS(C)(=O)=O)C2 (stereo not shown)
3. CCOC(=O)c1cncc(C2Cc3nn(-c4ccccc4OC)c(-c4ccc(Cl)cc4)c3C2)c1 (stereo not shown)

Given back:
89
96
79

* * *

- subject.of.test: N-type calcium channel (α1B (Cav2.2), β3 and α2δ subunits) (Homo sapiens)
- assay.procedure: Functional Assay: Antagonism of N-Type Calcium Channel (FDSS calcium mobilization, KCl depolarization)
- Format: cell-based
- experimental.context: HEK cell line, 50 mM KCl depolarization, six-point concentration-response; read-out: FDSS IC50
So basically: is IC50 under 40 nM? Then Met. Not under? Then Not met.

Would you please look over these solved cases?
[
  {
    "molecule": "COc1ccccc1-n1nc2c(c1-c1ccc(Cl)cc1)CC(N1CCC(C)(C)C1)C2 (centres unmarked) [Compound 119]",
    "cat": "Not met"
  },
  {
    "molecule": "COc1ccccc1-n1nc2c(c1-c1ccc(Cl)cc1)CC(C1CCCCC1)C2 (centres unmarked) [Compound 104]",
    "cat": "Not met"
  },
  {
    "molecule": "COc1ccccc1-n1nc2c(c1-c1ccc(C#N)cc1)C[C@H](n1cc(CC(C)C)nn1)C2 [Compound 127]",
    "cat": "Met"
  }
]

Asked: In the record for COc1ccccc1-n1nc2c(c1-c1ccc(Cl)cc1)C[C@H](OC1CCCCC1)C2 [Compound 88] , is IC50 less than 40 nM?
Given back: Not met

Asked: COc1ccccc1-n1nc2c(c1-c1ccc(N(C)C)nc1)CC1(C2)OC(C)(C)C(C)(C)O1 [Compound 110] , same question.
Given back: Met
